# TESTED_ON: Perilipin-1 (Homo sapiens) + 1-acylglycerol-3-phosphate O-acyltransferase ABHD5 (Homo sapiens) (UniProt O60240+Q8WTS1)
# ASSAY_METHOD_TEXT: PubChem AID 652125
# TEST_PARAMETERS: biochemical ABHD5-PLIN1 interaction, luminescence
Activity calls are given as the source filed them. The rule behind the calls is not given here.
Outcome codes: T (active), F (inactive)

CN1C(=O)c2ccccc2Sc2ccc(NC(=O)NCCc3cccs3)cc21 = T
Cc1ccc2cc(CC(=O)N3CCN(S(=O)(=O)c4ccc5c(c4)OCCO5)CC3)oc2c1 = F
Cc1ccc(CS(=O)(=O)c2ncc(Cl)c(C(=O)Nc3nnc(C(C)C)s3)n2)cc1 = F
O=C(c1nc(S(=O)(=O)Cc2ccccc2)ncc1Cl)N(Cc1ccccc1)Cc1ccco1 = T
CS(=O)(=O)c1ncc(Cl)c(C(=O)Nc2ccc(C(F)(F)F)cc2)n1 = T
O=C(C1COc2ccccc2O1)N1CCN(S(=O)(=O)c2ccc3c(c2)OCCO3)CC1 (stereo unspecified) = F

Every entry's value here was drawn from PubChem BioAssay AID652125.
